assay: activity coefficient (dimensionless); of the first substance listed, at infinite dilution; xn = mol fraction of the nth substance listed; details: 343.15 K; 101.33 kPa; Liquid; Chromatography; x1 = 0

compound	activity coefficient
CCCCCCCCCC [decane] + CCCCCCn1cc[n+](C)c1C.O=S(=O)([N-]S(=O)(=O)C(F)(F)F)C(F)(F)F	21.6
C1CCOC1 [tetrahydrofuran] + CCCCCCn1cc[n+](C)c1C.O=S(=O)([N-]S(=O)(=O)C(F)(F)F)C(F)(F)F	0.55
CCCCCCC [heptane] + CCCCCCn1cc[n+](C)c1C.O=S(=O)([N-]S(=O)(=O)C(F)(F)F)C(F)(F)F	9.2
CC(C)=O [acetone] + CCCCCCn1cc[n+](C)c1C.O=S(=O)([N-]S(=O)(=O)C(F)(F)F)C(F)(F)F	0.45
CCCCC [pentane] + CCCCCCn1cc[n+](C)c1C.O=S(=O)([N-]S(=O)(=O)C(F)(F)F)C(F)(F)F	5.33
Cc1cccc(C)c1 [1,3-dimethylbenzene] + CCCCCCn1cc[n+](C)c1C.O=S(=O)([N-]S(=O)(=O)C(F)(F)F)C(F)(F)F	1.44
CCOC(C)=O [ethyl acetate] + CCCCCCn1cc[n+](C)c1C.O=S(=O)([N-]S(=O)(=O)C(F)(F)F)C(F)(F)F	0.91
ClCCl [dichloromethane] + CCCCCCn1cc[n+](C)c1C.O=S(=O)([N-]S(=O)(=O)C(F)(F)F)C(F)(F)F	0.71
Cc1ccccc1C [1,2-dimethylbenzene] + CCCCCCn1cc[n+](C)c1C.O=S(=O)([N-]S(=O)(=O)C(F)(F)F)C(F)(F)F	1.22
CC1CCCCC1 [methylcyclohexane] + CCCCCCn1cc[n+](C)c1C.O=S(=O)([N-]S(=O)(=O)C(F)(F)F)C(F)(F)F	5.81
ClC(Cl)Cl [trichloromethane] + CCCCCCn1cc[n+](C)c1C.O=S(=O)([N-]S(=O)(=O)C(F)(F)F)C(F)(F)F	0.81
c1ccccc1 [benzene] + CCCCCCn1cc[n+](C)c1C.O=S(=O)([N-]S(=O)(=O)C(F)(F)F)C(F)(F)F	0.75
C1=CCCCC1 [cyclohexene] + CCCCCCn1cc[n+](C)c1C.O=S(=O)([N-]S(=O)(=O)C(F)(F)F)C(F)(F)F	3.06
CCCCCC [hexane] + CCCCCCn1cc[n+](C)c1C.O=S(=O)([N-]S(=O)(=O)C(F)(F)F)C(F)(F)F	6.96

----------
test: activity coefficient (dimensionless); of the first substance listed, at infinite dilution; xn = mol fraction of the nth substance listed; settings: 323.15 K; 101.33 kPa; Liquid; Chromatography; x1 = 0
Label Met for high-side activity coefficient (at or above 0.8) and Not met for low-side activity coefficient (below it).

molecule	discrete label
CC1CCCCC1 [methylcyclohexane] + CCCCCCn1cc[n+](C)c1C.O=S(=O)([N-]S(=O)(=O)C(F)(F)F)C(F)(F)F	Met
ClCCl [dichloromethane] + CCCCCCn1cc[n+](C)c1C.O=S(=O)([N-]S(=O)(=O)C(F)(F)F)C(F)(F)F	Not met
CCCCCC [hexane] + CCCCCCn1cc[n+](C)c1C.O=S(=O)([N-]S(=O)(=O)C(F)(F)F)C(F)(F)F	Met
C1CCCCC1 [cyclohexane] + CCCCCCn1cc[n+](C)c1C.O=S(=O)([N-]S(=O)(=O)C(F)(F)F)C(F)(F)F	Met
CCCCCCCCC [nonane] + CCCCCCn1cc[n+](C)c1C.O=S(=O)([N-]S(=O)(=O)C(F)(F)F)C(F)(F)F	Met
CC(C)=O [acetone] + CCCCCCn1cc[n+](C)c1C.O=S(=O)([N-]S(=O)(=O)C(F)(F)F)C(F)(F)F	Not met
